Measured melting point accompanies every entry in the list below.
measured.parameter: melting point

compound | measured.parameter | result
Cc1nn(C2CCS(=O)(=O)C2)c(N2CCCCC2)c1C=O (centres undefined) | melting point | 86 to 88 °C
Cc1cccc2c(=O)[nH]cnc12 | melting point | 255 to 257 °C
Fc1cccc(-n2ccnc2)n1 | melting point | 87 to 89 °C
Nc1cccc(OCCc2ccccc2)c1 | melting point | 139 to 141 °C
NC(=O)c1ccc(S(N)(=O)=O)cc1 | melting point | 243 to 245 °C
CNc1snc(C)c1C(=O)OC | melting point | 56 to 58 °C
O=C(NCO)c1ccc(Cl)cc1 | melting point | 145 to 147 °C
O=C(CCl)N1CCSc2ccccc21 | melting point | 53 to 55 °C
c1ccc(NC2CCCCC2)nc1 | melting point | 123 to 125 °C
CN(C)CCCNC(=O)c1cccnc1Cl | melting point | 97 to 101 °C
Cc1cc(O)n(C(C)(C)C)n1 | melting point | 125 to 127 °C
Nc1cc(C(F)(F)F)ccc1-n1cncn1 | melting point | 119 to 121 °C
Nc1ccc(C(=O)NCC(F)(F)F)cc1 | melting point | 157 to 159 °C
Nn1c(SCC(=O)O)nnc1C1CCCCC1 | melting point | 159 to 161 °C
